- Target Entity: E. coli RNase P holoenzyme (M1 P RNA + rnpA protein) (UniProt P0A7Y8)
- Sequence: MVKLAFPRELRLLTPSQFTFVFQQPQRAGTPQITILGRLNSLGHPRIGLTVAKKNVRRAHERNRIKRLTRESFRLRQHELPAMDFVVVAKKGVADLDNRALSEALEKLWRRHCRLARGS
- Assay Details: relative kcat/Km (krel) vs genomic leader AAAGAU (relative (reference leader = 1)); higher = faster RNase P cleavage
- Experimental Context: fraction of substrate reacted: ~9-10% (9.79% repeat 1, 9.1% repeat 2)
Whole data set: some 4,100 sequences, median “relative kcat/Km (krel) vs genomic leader AAAGAU” near 1.7, cut for the highest 2% near 6.5. The entries come from a sample that favours the highest values as a whole.
relative kcat/Km vs 2: at or above is Fulfilled, below is Not fulfilled.

>>> label_class("GACCAA")
"Not fulfilled"
>>> label_class("GGCCAC")
"Not fulfilled"
>>> label_class("GCCCAT")
"Fulfilled"
>>> label_class("ATCCCC")
"Fulfilled"
>>> label_class("CGCTAA")
"Fulfilled"

Entry "ATCCAC" : is its relative kcat/Km no less than 2?
Fulfilled
